The measurements presented in this section are drawn from patent US6497898B1.

# Test system: skin
# protocol-summary: Safety test: skin irritation patch test of the surfactants
# Format: in vivo
# measurement-context: Sample (solution) per table head; patch on 20 subjects for 24 hours, evaluated 24 hours after removing; clear erythema = positive
measured-parameter: Irritation to skin, positive, % (%)
Report only the number, with the unit % understood.

compound	readout-units	Irritation to skin, positive, %
C=CCCCCCCCCC(=O)OCC1OC(OC2OC(CO)C(O)C(O)C2O)C(O)C(O)C1O (stereo not shown) [6-(10-Undecylenyl)-trehalose, 6-(10-undecylenyl)-trehalose]	%	0
CCCCCCCCCCCC(=O)OCC1OC(OC2OC(CO)C(O)C(O)C2O)C(O)C(O)C1O (stereo not shown) [6-Lauroyl-trehalose, 6-lauroyl-trehalose]	%	0
CCCCCCCCCCCCOP(=O)([O-])O.[Na+] [Monosodium lauryl phosphate, reference compound]	%	0.5

Alright, here's another compound for you.
// recorded Irritation to skin, positive, % for CCCCCCCCCCCCCCCCCC(=O)OC[C@H]1O[C@H](O[C@H]2O[C@H](CO)[C@@H](O)[C@H](O)[C@H]2O)[C@H](O)[C@@H](O)[C@@H]1O [6-Stearoyl-trehalose, 6-stearoyl-trehalose] : 0
